# Tested on: OVCAR-8 ovarian
# assay.explanation: NCI tumour cell line growth inhibition, 48 h

{"columns": ["compound", "TGI"],
 "data": [
  ["O=C(/C=C/c1ccccc1)N1CCCCC1", "> 100 µM"],
  ["CCCCCCCC(=O)OCC1OC(OC)C(NC(=O)N(CCCl)N=O)C(O)C1O (stereo not drawn)", "57.2 µM"],
  ["O=c1oc(=O)c2oc3ccccc3oc1=2", "> 100 µM"],
  ["COc1c(C)cc2c(c1O)C1NC(C2)[C@H](O)N2C3COC(=O)[C@@]4(CS[C@@H](c5c(OC(C)=O)c(C)c6c(c53)OCO6)C12)NCCC1=C4NC2C=CC=CC12 (stereo partly drawn)", "< 0.01 µM"],
  ["CC[C@@H]1C[C@H]2CC3c4[nH]c5ccc(O)cc5c4CCN(C2)C31", "> 100 µM"],
  ["O=C(NO)c1ccc(Cn2c(=O)n(-c3ccccc3F)c(=O)c3ccccc32)cc1", "5.11 µM"],
  ["CN(C)Cc1cc(C=O)cc(CN(C)C)c1O", "> 100 µM"],
  ["COC1CC(NC(=O)C(F)(F)F)C(OC(C)=O)C(C)O1 (stereo not drawn)", "> 100 µM"]
]}
